B1: STX5 (parent)
chain: ESTIVELGSIFQQLAHMVKEQEET

Variants of: B1
ASSAY REMARKS: protein stability index of a GFP-peptide fusion (GPS, HEK-293T) (PSI 1-6); higher = more stable;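 note: lentivirally expressed fusions sorted by FACS into six bins by GFP to DsRed ratio, PSI derived from sequencing read proportions per bin multiplied by bin number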
SETTINGS: c terminus: a fixed tail appended
Record satisfied whenever protein stability index is at 3 or higher; record not satisfied when lower.

Here's what some known entries look like.
SEQ STRING | ANSWER LABEL
ESTIVELGGIFQQLAHMVKEQEET [S9G] | satisfied
ESTIVELGSIFQQLAHMVHEQEET [K19H] | not satisfied
ESTIVELGSIFQQLAHWVKEQEET [M17W] | not satisfied
ESTIVELGSPFQQLAHMVKEQEET [I10P] | satisfied
ESTWVELGSIFQQLAHMVKEQEET [I4W] | not satisfied

Could you verify whether the entry ESTIMELGSIFQQLAHMVKEQEET [V5M] shows protein stability index of no less than 3?
not satisfied

Could you verify whether the entry ESTIVELGSIFQQYAHMVKEQEET [L14Y] shows protein stability index of no less than 3?
not satisfied
